# melting point listing for each entry below

// worked examples, melting point included
Cc1cc(C)cc(Oc2c(C(C)C)c(=O)[nH]c(=O)n2Cc2cccc(C#N)c2)c1	160 to 162 °C
CCc1c(Oc2cc(C)cc(C)c2)n(Cc2ccc(OC(F)(F)F)cc2)c(=O)[nH]c1=O	148 to 150 °C
CCc1c(Oc2cc(C)cc(C)c2)n(Cc2cc(C)cc(C)c2)c(=O)[nH]c1=O	130 to 132 °C
COC(=O)c1ccoc1Cn1c(Oc2cc(C)cc(C)c2)c(C(C)C)c(=O)[nH]c1=O	157 to 159 °C
Cc1cc(C)cc(Oc2c(C(C)C)c(=O)[nH]c(=O)n2Cc2c3ccccc3cc3ccccc23)c1	224 to 226 °C

I am curious: what melting point value has been reported for `CC(=O)Cn1c(C(=O)c2cc(C)cc(C)c2)c(C(C)C)c(=O)[nH]c1=O` ?
181 to 183 °C

I am curious: what melting point value has been reported for `CCc1c(Oc2cc(C)cc(C)c2)n(Cc2ccc3ccccc3n2)c(=O)[nH]c1=O` ?
220 to 222 °C

I am curious: what melting point value has been reported for `Cc1cc(C)cc(Oc2c(C(C)C)c(=O)[nH]c(=O)n2Cc2cccnc2)c1` ?
190 to 193 °C

I am curious: what melting point value has been reported for `CCc1c(Oc2cc(C)cc(C)c2)n(Cc2cc(Cl)cc(Cl)c2)c(=O)[nH]c1=O` ?
194 to 196 °C

I am curious: what melting point value has been reported for `CC(=O)Cn1c(Oc2cc(C)cc(C)c2)c(C(C)C)c(=O)[nH]c1=O` ?
181 to 183 °C

I am curious: what melting point value has been reported for `CCc1c(Oc2cc(C)cc(C)c2)n(CC(C)=O)c(=O)[nH]c1=O` ?
162 to 165 °C

I am curious: what melting point value has been reported for `Cc1cc(C)cc(Oc2c(C(C)C)c(=O)[nH]c(=O)n2Cc2ccc(OC(F)(F)F)cc2)c1` ?
173 to 175 °C

I am curious: what melting point value has been reported for `CCc1c(Sc2cc(C)cc(C)c2)n(Cc2cc(OC)cc(OC)c2)c(=O)[nH]c1=O` ?
181 to 183 °C

I am curious: what melting point value has been reported for `Cc1cc(C)cc(Oc2c(C(C)C)c(=O)[nH]c(=O)n2Cc2cc(Cl)cc(Cl)c2)c1` ?
234 to 236 °C

I am curious: what melting point value has been reported for `CCC(=O)Cn1c(Oc2cc(C)cc(C)c2)c(C(C)C)c(=O)[nH]c1=O` ?
135 to 138 °C

I am curious: what melting point value has been reported for `CCc1c(C(=O)c2cc(C)cc(C)c2)n(Cc2occc2C(=O)OC)c(=O)[nH]c1=O` ?
204 to 206 °C

I am curious: what melting point value has been reported for `Cc1cc(C)cc(C(=O)c2c(C(C)C)c(=O)[nH]c(=O)n2Cc2ccccc2)c1` ?
188 to 190 °C

###

System: mock-infected MT-4 cells
Assay: Cytotoxicity based on viability of mock-infected host cells (MTT method)
Type: cell-based
Details: mock-infected MT-4 cells, MTT method, 4 or 5 days at 37° C.
# log10 CD50 listing for each entry below
Log10 applied to CD50; unit prior to transform: µg/mL.

// worked examples, log10 CD50 included
CCc1c(Oc2cc(C)cc(C)c2)n(CC2CCCCC2)c(=O)[nH]c1=O [Example 15]	0.96
COc1cc(Cn2c(Sc3cc(C)cc(C)c3)c(C(C)C)c(=O)[nH]c2=O)cc(OC)c1 [Example 56]	1.05
Cc1cc(C)cc(Oc2c(C(C)C)c(=O)[nH]c(=O)n2CC2CO2)c1 (centres unmarked) [Example 138]	1.60
Cc1cc(C)cc(Sc2c(C(C)C)c(=O)[nH]c(=O)n2Cc2c3ccccc3cc3ccccc23)c1 [Example 98]	0.24
CCc1c(Sc2cc(C)cc(C)c2)n(Cc2cccnc2)c(=O)[nH]c1=O [Example 115]	1.22

I am curious: what log10 CD50 value has been reported for CCc1c(Sc2cc(C)cc(C)c2)n(Cc2cc(F)ccc2F)c(=O)[nH]c1=O [Example 67] ?
1.09

I am curious: what log10 CD50 value has been reported for CCc1c(Sc2cc(C)cc(C)c2)n(Cc2cccc(C#N)c2)c(=O)[nH]c1=O [Example 43] ?
0.25

I am curious: what log10 CD50 value has been reported for Cc1cc(C)cc(Cn2c(Sc3cc(C)cc(C)c3)c(C(C)C)c(=O)[nH]c2=O)c1 [Example 50] ?
0.94

I am curious: what log10 CD50 value has been reported for CCc1c(Oc2cc(C)cc(C)c2)n(CC2CO2)c(=O)[nH]c1=O (centres unmarked) [Example 137] ?
1.61

I am curious: what log10 CD50 value has been reported for CCc1c(Oc2cc(C)cc(C)c2)n(Cc2ccccc2C#N)c(=O)[nH]c1=O [Example 39] ?
1.78

###

# CD50 listing for each entry below
Test system: mock-infected MT-4 cells
Experiment: Cytotoxicity based on viability of mock-infected host cells (MTT method)
Assay type: cell-based
Details: mock-infected MT-4 cells, MTT method, 4 or 5 days at 37° C.
Note: unit µg/mL is implicit; provide only the numeric part.

CCc1c(Oc2cc(C)cc(C)c2)n(CC(C)=O)c(=O)[nH]c1=O [Example 157]	3.6
COC(=O)c1ccoc1Cn1c(C(=O)c2cc(C)cc(C)c2)c(C(C)C)c(=O)[nH]c1=O [Example 156]	10.92
Cc1cc(C)cc(C(=O)c2c(C(C)C)c(=O)[nH]c(=O)n2Cc2cccc(Br)n2)c1 [Example 130]	8.85
Cc1cc(C)cc(C(=O)c2c(C(C)C)c(=O)[nH]c(=O)n2Cc2cccc(C#N)c2)c1 [Example 48]	8.07
CCc1c(Sc2cc(C)cc(C)c2)n(CC2CCC2)c(=O)[nH]c1=O [Example 7]	11.73

Shifting focus to the molecule that follows.
Notebook: pull reported CD50 for mock-infected MT-4 cells, entry Cc1cc(C)cc(Sc2c(C(C)C)c(=O)[nH]c(=O)n2Cc2ccccc2)c1 [Example 20]
11.30

###

measured property: melting point

CCc1c(Oc2cc(C)cc(C)c2)n(Cc2occc2C(=O)OC)c(=O)[nH]c1=O [Example 153]	150 to 152 °C

I am curious: what melting point value has been reported for CCc1c(C(=O)c2cc(C)cc(C)c2)n(Cc2ccc(OC(F)(F)F)cc2)c(=O)[nH]c1=O [Example 35] ?
155 to 157 °C

I am curious: what melting point value has been reported for Cc1cc(C)cc(Oc2c(C(C)C)c(=O)[nH]c(=O)n2Cc2nc3ccccc3o2)c1 [Example 148] ?
200 to 202 °C

I am curious: what melting point value has been reported for CCC(=O)Cn1c(C(=O)c2cc(C)cc(C)c2)c(C(C)C)c(=O)[nH]c1=O [Example 164] ?
174 to 176 °C

###

# melting point listing for each entry below

CCc1c(C(=O)c2cc(C)cc(C)c2)n(Cc2ccccc2)c(=O)[nH]c1=O [Example 23]	202 to 204 °C

I am curious: what melting point value has been reported for CCc1c(Oc2cc(C)cc(C)c2)n(Cc2ccc3c(c2)C(=O)c2ccccc2C3=O)c(=O)[nH]c1=O [Example 105] ?
233 to 235 °C

###

System: mock-infected MT-4 cells
Assay: Cytotoxicity based on viability of mock-infected host cells (MTT method)
Format: cell-based
Details: mock-infected MT-4 cells, MTT method, 4 or 5 days at 37° C.
# log10 of CD50 listing for each entry below
Log10 applied to CD50; unit prior to transform: µg/mL.

// worked examples, log10 of CD50 included
Cc1cc(C)cc(Sc2c(C(C)C)c(=O)[nH]c(=O)n2Cc2cccc(Cl)n2)c1	0.45
CCc1c(Sc2cc(C)cc(C)c2)n(Cc2ccccn2)c(=O)[nH]c1=O	1.47
Cc1cc(C)cc(C(=O)c2c(C(C)C)c(=O)[nH]c(=O)n2Cc2cc(C(F)(F)F)cc(C(F)(F)F)c2)c1	0.91
CCc1c(Sc2cc(C)cc(C)c2)n(Cc2ccc(OC(F)(F)F)cc2)c(=O)[nH]c1=O	0.69
COc1cccc(Cn2c(C(=O)c3cc(C)cc(C)c3)c(C(C)C)c(=O)[nH]c2=O)c1	0.58
CCc1c(C(=O)c2cc(C)cc(C)c2)n(Cc2ccc3ccccc3n2)c(=O)[nH]c1=O	0.83
Cc1cc(C)cc(C(=O)c2c(C(C)C)c(=O)[nH]c(=O)n2CC2CCCCC2)c1	0.90
CCc1c(Sc2cc(C)cc(C)c2)n(CC2CCCCC2)c(=O)[nH]c1=O	1.05
Cc1cc(C)cc(Oc2c(C(C)C)c(=O)[nH]c(=O)n2Cc2cccc(C#N)c2)c1	0.96
CCc1c(Oc2cc(C)cc(C)c2)n(Cc2cc(OC)cc(OC)c2)c(=O)[nH]c1=O	1.57

I am curious: what log10 of CD50 value has been reported for `CCc1c(Sc2cc(C)cc(C)c2)n(Cc2cccc(Cl)n2)c(=O)[nH]c1=O` ?
0.89

I am curious: what log10 of CD50 value has been reported for `Cc1cc(C)cc(Sc2c(C(C)C)c(=O)[nH]c(=O)n2Cc2cc(F)ccc2F)c1` ?
0.62

I am curious: what log10 of CD50 value has been reported for `Cc1cc(C)cc(Oc2c(C(C)C)c(=O)[nH]c(=O)n2Cc2ccc3ccccc3n2)c1` ?
1.82

I am curious: what log10 of CD50 value has been reported for Cc1cc(C)cc(C(=O)c2c(C(C)C)c(=O)[nH]c(=O)n2CC2CO2)c1 (centres unmarked) ?
1.62

I am curious: what log10 of CD50 value has been reported for `Cc1cc(C)cc(C(=O)c2c(C(C)C)c(=O)[nH]c(=O)n2Cc2c3ccccc3cc3ccccc23)c1` ?
0.65

I am curious: what log10 of CD50 value has been reported for `Cc1cc(C)cc(C(=O)c2c(C(C)C)c(=O)[nH]c(=O)n2Cc2cc(F)cc(F)c2)c1` ?
0.85

I am curious: what log10 of CD50 value has been reported for `Cc1cc(C)cc(C(=O)c2c(C(C)C)c(=O)[nH]c(=O)n2Cc2ccccc2)c1` ?
0.72
